System: RXF 393 renal
MEASUREMENT_NOTES: NCI tumour cell line growth inhibition, 48 h
Entries and their TGI

# COMPOUND, TEST_SYSTEM, RESULT_UNIT, RELATION_SYMBOL, TGI
records = [
    ("Cc1sc(Nc2ccc(Nc3nc(-c4ccccc4)c(C)s3)cc2)nc1-c1ccccc1", "RXF 393 renal", "µM", "=", 81.5),
    ("COc1ccc(N2CN3OC(=O)N(c4ccc(OC)cc4)[C@@]3(c3ccccc3)C2)cc1", "RXF 393 renal", "µM", "=", 74.6),
    ("CC[C@@]12CCCN3CC[C@]4(c5cccc(OC)c5N(C(C)=O)[C@@H]4CC1)[C@H]32", "RXF 393 renal", "µM", ">", 100),
    ("CCN(CC)CC(C(=O)Nc1c(C)cccc1C)/C(C)=N\\NC(=O)C[N+](C)(C)C (stereo not given)", "RXF 393 renal", "µM", ">", 100),
    ("O=c1ccn([C@@H]2C[C@H]2CO)c(=O)[nH]1", "RXF 393 renal", "µM", ">", 100),
]

* * *

Test system: PC-3 prostate
MEASUREMENT_NOTES: NCI tumour cell line growth inhibition, 48 h

# COMPOUND, TGI
measured = [
    ("COc1c2ccoc2c(/C=C/C=O)c2oc(-c3ccccc3)cc(=O)c12", "> 100 µM"),
    ("CCCCCCCCSC1=CC(=O)c2nc3ccccc3c3ccnc1c23", "> 100 µM"),
    ("Cc1cc2nc(C(Cl)Cl)nc(-c3ccc(Cl)cc3)n2n1", "4.16 µM"),
    ("COc1ccc(/C=c2/sc3n(c2=O)C(c2ccccc2)C2(O)CCCCC2N=3)cc1 (stereo unspecified)", "> 12.5 µM"),
    ("O=C1c2cccnc2-c2nc(-c3ccccc3[N+](=O)[O-])cc3c2c1nc1ccccc13", "69.1 µM"),
    ("Cc1ccc(-c2nnc(-c3ccc4ccccc4c3)o2)cc1", "> 100 µM"),
    ("COC(=O)[C@@H](C)C[C@H](Cc1ccc(F)cc1)NC(=O)c1csc([C@@H](C[C@H](C(C)C)N(C)C(=O)[C@@H](NC(=O)[C@H]2CCCCN2C)C(C)C)OC(C)=O)n1", "> 16.7 µM"),
    ("O=C(NCCNc1nccc(-c2c(-c3cccc(O)c3)nc3sccn23)n1)c1ccccc1O", "55.1 µM"),
    ("COc1ccc(-c2cc(-c3ccc(Nc4nc(Nc5ccccc5)nc(Nc5ccc(Cl)cc5)n4)cc3)nc(N)c2C#N)cc1", "7.94 µM"),
    ("S=c1nc2sc3c(c2c(Nc2ccc(Cl)cc2)[nH]1)CCCC3", "> 100 µM"),
    ("CCOC(=O)c1c(SC(=O)c2ccc(C(C)(C)C)cc2)n(-c2ccccc2)c(=S)n(-c2ccccc2)c1=O", "> 100 µM"),
]

* * *

Each entry below carries its recorded TGI.
Tested on: RPMI-8226 leukemia
MEASUREMENT_NOTES: NCI tumour cell line growth inhibition, 48 h

# MOLECULE, RELATION_SYMBOL, TGI (µM)
records = [
    ("S=C1NCCN1", ">", 100),
    ("CN(C)CCNc1ccc([N+](=O)[O-])c2sc3ccccc3c(=O)c12", "=", 7.52),
    ("CC(C)(C)c1cc(C(=O)/C=C/c2c(Cl)cccc2Cl)cc(C(C)(C)C)c1O", "=", 21.3),
    ("COc1ccc(-n2/c(=N/C(=S)N(C)C)ss/c2=N\\C(=S)N(C)C)cc1", ">", 100),
    ("CC(=O)C(CN(C(C)C)C(C)C)C(c1ccccc1)c1c(O)c2ccccc2oc1=O (stereo not given)", ">", 100),
    ("COC(=O)c1ccc2[nH]c(O)c(C(=Nc3ccc(N(C)C(=O)CN4CCN(C)CC4)cc3)c3ccc(C)cc3)c2c1", "=", 2.47),
    ("COc1ccc(N2CN3OC(=O)N(c4ccc(OC)cc4)[C@@]3(c3ccccc3)C2)cc1", ">", 100),
    ("O=C1NC2(CCCCC2)C2CCCCC(O)C12 (stereo not given)", ">", 100),
    ("COc1cccc2c1C(=O)C1=C(C2=O)C(O)CC(C)(C)O1 (stereo not given)", "=", 60.4),
    ("O=C1c2cccnc2-c2nc(-c3ccccc3[N+](=O)[O-])cc3c2c1nc1ccccc13", ">", 100),
]
